// data source = PubChem BioAssay (NCI)

# System: OVCAR-4 ovarian
# Assay method text: NCI tumour cell line growth inhibition, 48 h
So I've got a bunch of molecules here, and I need their TGI values.

// solved cases for TGI follow
molecule=CN(C)CCCNC(=O)CCNC(=O)c1cc(NC(=O)c2cc(NC(=O)c3cc(NC(=O)c4nccn4C)cn3C)cn2C)cn1C measured_property=TGI measurement="> 20.3 µM"
molecule=O=C(NNC1=NCCCCN1)Nc1ccc(Cl)cc1 measured_property=TGI measurement="> 100 µM"
molecule=O=C(Nc1ccc(-n2cc(-c3ccncc3)c(-c3ccc(O)c(Cl)c3)n2)cc1)Nc1ccc(Cl)c(C(F)(F)F)c1 measured_property=TGI measurement="29.9 µM"
molecule="N#Cc1cc([N+](=O)[O-])ccc1NC(=O)/C(=N\\NC(=O)c1ccncc1)C(c1cnc2ccc([N+](=O)[O-])cc2n1)[N+](=O)[O-] (configuration not stated)" measured_property=TGI measurement="5.76 µM"
molecule=O=C1C=CC(=O)c2c1ccc1c3ccccc3n(-c3ccccc3)c21 measured_property=TGI measurement="27.2 µM"

Take each entry in turn and give its TGI.
1. O=C1C=CC2(C=C1)CCNC1=C2C(=O)c2ccccc2C1=O
2. O=C1CC2(CCC3=C(O2)c2ccccc2NC(=O)C3)C(=O)c2ccccc2N1 (configuration not stated)

Solution:
> 100 µM
> 100 µM

###

# System: HOP-92 NSCLC
# Assay method text: NCI tumour cell line growth inhibition, 48 h
Measured property: TGI

compound=CCOC(=O)C1(C(=O)OCC)C[C@@H](C)[C@@H](O)C1 measurement="> 100 µM"
compound=COc1cc2oc(-c3ccc4c(c3)OCO4)c(OC)c(=O)c2c(OC)c1O measurement="89.4 µM"
compound="O=C(O)C(C(=O)O)P(=S)(S)c1ccccc1 (centres undefined)" measurement="> 100 µM"

Here are 3 compounds. What values of TGI were reported for them?
1. CCSc1cc2c(cc1O)CC[C@@H]1[C@@H]2CC[C@]2(C)[C@@H](O)CC[C@@H]12
2. CCCCCCCCCCCC(=O)N1CCN(C(C)=O)CC1
3. CN(C)CCCNc1ncnc2c1ncn2C1OC(CO)C(O)C1O (centres undefined)

Solution:
1: 24.3 µM; 2: 27.4 µM; 3: > 100 µM

Batch of 7 compounds: report TGI for each.
1. COc1cc(/C=N\c2nc(-c3ccc(NS(=O)(=O)c4ccc(Cl)c(OC)c4)cc3)cs2)ccc1O
2. CCN(CC)C1CCC(C2c3cc4c(cc3OC(N3CCOCC3)C2C)OCO4)CC1 (centres undefined)
3. C[Si](C)(N[Si](C)(C)OCCc1ccccc1)OCCc1ccccc1
4. CCOC(=O)C(N=C(c1ccccc1)c1ccccc1)N(C(=O)OC(C)(C)C)C(=O)OC(C)(C)C (centres undefined)
5. C(=N\Nc1ccccc1)/c1nc2ccccc2nc1/C=N/Nc1ccccc1
6. CC1=NN(c2ccc(S(=O)(=O)O)cc2)C(=O)/C1=C/c1ccc(Cl)cc1
7. COc1ccc(Cc2c(=O)[nH]nc3ccccc23)cc1

Solution:
1: > 100 µM; 2: > 100 µM; 3: > 100 µM; 4: 66.6 µM; 5: 33.2 µM; 6: > 100 µM; 7: > 100 µM

Consider the following items and state reported TGI for each.
1. CC(Oc1ccccc1Cl)C(=O)NN1C(=O)CC(=O)NC1=S (centres undefined)
2. CCc1nc(N)nc(N)c1-c1ccc2nnn(O)c2c1

Solution:
["> 100 µM", "> 100 µM"]

Each compound below has a recorded value; state its TGI.
1. OCCCNc1ncnc2[nH]ncc12
2. CCOC(=O)Nc1nc2ccc(Br)cc2s1
3. CCCCNC(=O)C1C(=O)N(CCCC)C(=O)/C1=N\N (centres undefined)
4. Cc1ccc(NC(=O)c2cc3ccccc3c(N=Nc3cc(S(=O)(=O)O)ccc3O)c2O)c(C)c1

Solution:
1. > 100 µM
2. > 50 µM
3. > 100 µM
4. > 100 µM

###

# Tested on: HCC-2998 colon
# Assay method text: NCI tumour cell line growth inhibition, 48 h
Measured property: TGI

Consider the worked cases shown below.
molecule="CN1CCC2(CC1)NC(=O)c1c(c3ccc(Cl)c(Cl)c3n1C)C2C#N (stereo not drawn)" system_under_test="HCC-2998 colon" measurement="3.95 µM"
molecule=Cc1cc(C)c(O)c(CN2CCN(C(C)C)CCN(C(C)C)CC2)c1 system_under_test="HCC-2998 colon" measurement="40.8 µM"
molecule="O=C(O)c1cc2c(cc1CC(Cc1ccc3c(c1)CCCC3)C(=O)O)CCCC2 (stereo not drawn)" system_under_test="HCC-2998 colon" measurement="> 100 µM"
molecule="O=C(CC(C(=O)c1cccs1)c1ccsc1)c1ccccc1 (stereo not drawn)" system_under_test="HCC-2998 colon" measurement="> 100 µM"
molecule=CCCN(CCC)C(=S)N/N=C/c1ccccn1 system_under_test="HCC-2998 colon" measurement="19.6 µM"
molecule=CC1(C)CC(=O)C2=C(C1)NC1=C(C2)C(=O)CC(C)(C)C1 system_under_test="HCC-2998 colon" measurement="> 100 µM"

Would you mind giving TGI for every molecule in the list below?
1. COc1cc2c(cc1Cc1cccc(Cl)c1F)c(=O)c(C(=O)O)cn2[C@@H](CO)C(C)C
2. CCCn1cc2c(SC)nc(SC)nc2n1
3. NNC(=O)CCSc1ccccc1
4. N#CCCCCCOCCOCCOCCOCCOCCCCCC#N
5. COc1ccc2c(c1)oc(=O)c1cc(OC)ccc12

Solution:
["11.6 µM", "> 100 µM", "> 100 µM", "> 100 µM", "> 100 µM"]

###

I'd be grateful if you could share measured TGI for these entries.
# System: DLD-1 colon
# Assay method text: NCI tumour cell line growth inhibition, 48 h

molecule=N#CCCCCCOCCOCCOCCOCCOCCCCCC#N measurement="> 100 µM"
molecule=OCCCNc1ccnc2cc(Cl)ccc12 measurement="> 100 µM"
molecule="O=C(NCc1cccnc1)C1COc2cc(-c3cc(=O)c4ccccc4o3)ccc2O1 (stereo not given)" measurement="> 100 µM"

Respectfully, I request TGI for each entry included below.
1. C(=N\Nc1ccccc1)/c1nc2ccccc2nc1/C=N/Nc1ccccc1
2. CC1(Br)CC2OC3(Br)C=CC(C)(O)C2(CC1=O)C3(C)C (stereo not given)
3. CC[C@@]1(O)C(=O)OCc2c1cc1n(c2=O)Cc2cc3cccc([N+](=O)[O-])c3nc2-1

Solution:
40.9 µM
> 100 µM
> 100 µM

Items follow; give TGI for each.
1. Cc1ccc(C(c2c(O)c3ccccc3n(-c3ccccc3)c2=O)c2c(O)c3ccccc3n(-c3ccccc3)c2=O)cc1
2. CCOP12(OCC)NC(=O)OC1(C(F)(F)F)c1ccccc1O2 (stereo not given)
3. NC1CCCCC1N.O=[Se]([O-])[O-].[Pt+4] (stereo not given)
4. O=c1c2ccccc2nc2n1-c1ccccc1SC2

Solution:
1. > 100 µM
2. > 100 µM
3. > 83.8 µM
4. > 100 µM

###

# System: HOP-62 NSCLC
# Assay method text: NCI tumour cell line growth inhibition, 48 h
Measured property: TGI

Previously resolved entries follow.
molecule=S=C(NCCNC(=S)[S][Sn]([c]1ccccc1)([c]1ccccc1)[c]1ccccc1)[S][Sn]([c]1ccccc1)([c]1ccccc1)[c]1ccccc1 measured_property=TGI measurement="0.147 µM"
molecule=CCCN(CCC)C(=S)N/N=C/c1ccccn1 measured_property=TGI measurement="3.18 µM"
molecule="O=c1[nH]c(=O)c2cc3cc(C4CC(O)C(CO)O4)ccc3cc2[nH]1 (configuration not stated)" measured_property=TGI measurement="> 100 µM"
molecule="CC1(C)C2CC(O)C1CCC2=O (configuration not stated)" measured_property=TGI measurement="> 100 µM"
molecule=CCN(CC)CCN(C(=Nc1ccccc1)N1CCCCC1)c1ccccc1 measured_property=TGI measurement="22.2 µM"

The following molecules each have a reported value; give each one's TGI.
1. O=C(O)C(C(=O)O)P(=S)(S)c1ccccc1 (configuration not stated)
2. Cn1ccc(C(=O)NCCN(CCNC(=O)c2ccn(C)c(=O)c2O)CCNC(=O)c2ccn(C)c(=O)c2O)c(O)c1=O
3. CNC(=O)NCCN1CC2CCC(CC2)C1
4. O=C(CCCN1CCC2(CC1)CC(=O)N(N1CCOCC1)C2=O)c1ccc(F)cc1
5. COc1ccc2c(c1)CC[C@@H]1[C@@H]2CC[C@]2(C)c3c(cc(C(=O)O)c4sccc34)C[C@@H]12
6. CCOC(=O)CCSc1nc2ccc(I)cc2c(=O)n1Cc1ccccc1
7. C[C@]12CC[C@@H]3c4cc(O)c(O)cc4CC[C@H]3[C@@H]1CC[C@@H]2O
8. Clc1ccc(C(Cc2cccc(Cl)c2)c2c(Cl)nc(N3CCNCC3)nc2Cl)cc1 (configuration not stated)

Solution:
> 100 µM
> 100 µM
> 10 µM
> 100 µM
38.5 µM
> 75.2 µM
54.6 µM
28.9 µM
